These data points were gathered from the supplement of paper PMC6755084.

B1: F1*; a variant is named by its letters at N, in order (parent)
chain: GAGACCGCAACTGAAAAGTTGTTATCACTTGTCGNANNNNNNTTNGNNNGGNTNNNGTTCTGCACGTAGAAGCAAAAGGC

variants of: B1; assay: fraction ligated after 30 min (ligated reads / total reads); higher = more ligase activity; details: with F1*sub RNA substrate (template-directed ligation), 42 °C
fraction ligated for assorted variants
assay_endpoint: fraction ligated

• TGACACTGATGTGAA = 0.849
• TAGCACTGATGTGAA = 0.827
• TAGACACTGATGTCC = 0.0263
• TAGACACTGATGTGA = 0.848
• TAACACTGATGTGAA = 0.832
• TAGACCTGATGTGAA = 0.839
• TAGACACTGATGTCG = 0.0205
• TAGACACTGATGTGT = 0.349
• TAGACACTGATGTCT = 0.0184
• TAGACACTGATGTAA = 0.834
• TAGACACTGATGTTA = 0.834
• TAGACACTGATGTTT = 0.0147
• TAGACACTGATGTGC = 0.802
• TAGACACGATGTGAA = 0.799
• TAGACACTGATGTTG = 0.0257
• AGACACTGATGTGAA = 0.843
• TAGACATGATGTGAA = 0.829
